target: PRMT5-MEP50 enzyme (Homo sapiens, UniProt O14744); construct: One virus expresses full length human PRMT5 with Flag-tag at N-terminus; assay: In vitro assay (Assay 1): PRMT5-MEP50 high throughput mass spectrometer assay, inhibition of SAH formation; assay type: biochemical; details: individual measurements shown, read-out: pIC50 Assay 1 (converted)
Sequence (O14744 whole entry): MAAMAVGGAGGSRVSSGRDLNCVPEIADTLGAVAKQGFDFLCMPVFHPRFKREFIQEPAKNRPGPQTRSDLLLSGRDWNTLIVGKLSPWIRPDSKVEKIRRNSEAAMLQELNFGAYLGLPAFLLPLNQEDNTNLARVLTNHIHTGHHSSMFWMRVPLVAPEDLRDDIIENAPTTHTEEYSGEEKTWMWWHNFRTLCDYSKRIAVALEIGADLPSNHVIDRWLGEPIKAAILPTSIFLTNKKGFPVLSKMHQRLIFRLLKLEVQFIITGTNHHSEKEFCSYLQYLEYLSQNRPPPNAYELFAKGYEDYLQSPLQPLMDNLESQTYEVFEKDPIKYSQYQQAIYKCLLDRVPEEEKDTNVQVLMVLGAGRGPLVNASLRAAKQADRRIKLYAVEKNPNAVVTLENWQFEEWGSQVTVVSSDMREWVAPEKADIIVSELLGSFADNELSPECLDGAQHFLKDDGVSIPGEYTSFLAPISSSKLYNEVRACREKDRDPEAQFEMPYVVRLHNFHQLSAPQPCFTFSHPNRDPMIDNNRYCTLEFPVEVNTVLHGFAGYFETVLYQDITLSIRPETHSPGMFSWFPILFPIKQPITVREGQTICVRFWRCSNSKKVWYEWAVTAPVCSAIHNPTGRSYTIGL
Sequence (Q9BQA1 whole entry partner): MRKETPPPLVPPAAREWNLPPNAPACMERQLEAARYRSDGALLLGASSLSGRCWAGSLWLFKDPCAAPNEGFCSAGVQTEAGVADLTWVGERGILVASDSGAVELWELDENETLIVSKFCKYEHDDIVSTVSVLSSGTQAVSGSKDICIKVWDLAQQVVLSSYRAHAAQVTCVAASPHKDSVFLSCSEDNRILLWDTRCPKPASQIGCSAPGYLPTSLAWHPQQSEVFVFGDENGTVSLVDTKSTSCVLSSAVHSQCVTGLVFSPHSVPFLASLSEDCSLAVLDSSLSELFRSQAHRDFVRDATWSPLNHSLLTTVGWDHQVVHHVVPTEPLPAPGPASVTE
IC50 strictly under 1000 nM means Fulfilled; at 1000 nM or over means Not fulfilled.

>>> discrete_label("Nc1ncnn2c([C@@H]3O[C@H](CN4CCCC45CCN(CC(F)(F)F)CC5)[C@@H](O)[C@H]3O)ccc12 [Compound 141]")
"Not fulfilled"
>>> discrete_label("Nc1ncnc2c1c(F)cn2[C@@H]1O[C@H](CN2CCCC23CCNCC3)[C@@H](O)[C@H]1O [Compound 24]")
"Fulfilled"
>>> discrete_label("O[C@@H]1[C@H](O)[C@@H](CN2CCCC23CCNCC3)O[C@H]1n1cnc2cncnc21 [Compound 62]")
"Fulfilled"
>>> discrete_label("Nc1ncnc2c1ccn2[C@@H]1O[C@H](CN2CCCC23CCN(Cc2cccnn2)CC3)[C@@H](O)[C@H]1O [Compound 199]")
"Fulfilled"
>>> discrete_label("CN1CCC12CCN(C[C@H]1O[C@@H](n3cnc4c(N)ncnc43)[C@H](O)[C@@H]1O)C2 (some centres unmarked) [Compound 4]")
"Not fulfilled"
>>> discrete_label("Nc1ncnc2c([C@@H]3O[C@H](CN4CCCC45CCNCC5)[C@@H](O)[C@H]3O)cnn12 [Compound 68]")
"Fulfilled"
>>> discrete_label("CN1CCC2(CCCN2C[C@H]2O[C@@H](n3ccc4c(N)nccc43)[C@H](O)[C@@H]2O)CC1 [Compound 66]")
"Fulfilled"
>>> discrete_label("CC(C)C(=O)O[C@@H]1[C@H](OC(=O)C(C)C)[C@@H](CN2CC(F)(F)CC23CCN(C)CC3)O[C@H]1c1ccc2c(N)ncnn12 [Compound 105]")
"Not fulfilled"
>>> discrete_label("O[C@@H]1[C@H](O)[C@@H](CN2CC(F)(F)CC23CCN(C2CC2)CC3)O[C@H]1n1ccc2c(Cl)ncnc21 [Compound 67]")
"Not fulfilled"
>>> discrete_label("Cc1nc(CN2CCC3(CCCN3C[C@H]3O[C@@H](n4ccc5c(N)ncnc54)[C@H](O)[C@@H]3O)CC2)cs1 [Compound 176]")
"Not fulfilled"
>>> discrete_label("CC(C)C(=O)O[C@@H]1[C@@H](CN2CC(F)(F)CC23CCN(C)CC3)C[C@@H](n2ccc3c(N)ncnc32)[C@@H]1OC(=O)C(C)C [Compound 106]")
"Not fulfilled"
>>> discrete_label("CN1CCC2(CC1)CCN2C[C@H]1O[C@@H](n2cnc3c(N)ncnc32)[C@H](O)[C@@H]1O [Compound 9]")
"Fulfilled"
>>> discrete_label("CN1CCC2(CCCN(C[C@H]3O[C@@H](n4ccc5c(N)ncnc54)[C@H](O)[C@@H]3O)C2)C1 (some centres unmarked) [Compound 186]")
"Fulfilled"
>>> discrete_label("CN(C)CC[C@@H]1CCCN1C[C@H]1O[C@@H](c2ccc3c(N)ncnn23)[C@H](O)[C@@H]1O [Compound 148]")
"Not fulfilled"
>>> discrete_label("NCC[C@@H]1CCCN1C[C@H]1O[C@@H](n2cnc3c(N)ncnc32)[C@H](O)[C@@H]1O [Compound 59]")
"Fulfilled"
>>> discrete_label("Nc1ncnc2c1ccn2[C@@H]1O[C@H](CN2CCCC23CCCNCC3)[C@@H](O)[C@H]1O (single isomer, unassigned) [Compound 117]")
"Fulfilled"
>>> discrete_label("Nc1ncnc2c1ccn2[C@@H]1O[C@H](CN2CCCC23CCN(Cc2ccc(F)cc2)CC3)[C@@H](O)[C@H]1O [Compound 171]")
"Not fulfilled"
